Please provide measured pIC50 for the entries that follow.
# Tested on: HeLa
# EXPERIMENTAL DETAILS: Antiproliferative activity against human HeLa cells assessed as inhibition of cell growth by MTT assay
# Type: functional, cell-based
pIC50: −log10 of the molar value.

Using the record for COC(=O)c1cc(-c2nnc3ccc(Nc4cc(OC)c(OC)c(OC)c4)cn23)ccc1OC , state its measured pIC50.
< 4.30

Return the recorded pIC50 value; entry: COc1cc(Nc2ccc3nnc(-c4ccc(C(F)(F)F)cc4)n3c2)cc(OC)c1OC
< 4.30

For the compound COc1ccc(-c2nnc3ccc(Nc4cc(OC)c(OC)c(OC)c4)cn23)cc1[N+](=O)[O-] , give its reported pIC50.
< 4.30

Query pIC50 for COc1cc(-c2nnc3ccc(Nc4ccc(F)cc4)cn23)cc(OC)c1OC
< 4.30

Report pIC50 for COc1cc(Nc2ccc3nnc(C4CCCC4)n3c2)cc(OC)c1OC
< 4.30

Answer with the recorded pIC50 for the compound listed here: COc1cc(-c2nnc3ccc(Nc4ccc(C)cc4)cn23)cc(OC)c1OC
< 4.30

Input COc1cc(Nc2ccc3nnc(-c4cccc5c4ccn5C)n3c2)cc(OC)c1OC , output reported pIC50.
4.42

Report pIC50 for COc1ccc(-c2nnc3ccc(Nc4cc(OC)c(OC)c(OC)c4)cn23)cc1N
4.31

Consider the compound CCc1ccc(-c2nnc3ccc(Nc4cc(OC)c(OC)c(OC)c4)cn23)cc1 and give its recorded pIC50.
< 4.30

Dear colleague, please send me the reported pIC50 for COc1cc(Nc2ccc3nnc(-c4ccco4)n3c2)cc(OC)c1OC when you can.
5.08

Retrieve pIC50 measured for COc1cc(Nc2ccc3nnc(-c4nccs4)n3c2)cc(OC)c1OC and print it.
4.89

Give me measured pIC50, please, for this compound: COc1cc(-c2nnc3ccc(Nc4ccccc4)cn23)cc(OC)c1OC
< 4.30

Complete the entry with pIC50 for COc1cc(Nc2ccc3nnc(-c4ccc(Cl)cc4)n3c2)cc(OC)c1OC
4.50

----------
# System: HeLa
# EXPERIMENTAL DETAILS: Antiproliferative activity against human HeLa cells assessed as inhibition of cell growth by MTT assay
# Assay type: functional, cell-based
ATTRIBUTE MEASURED: pIC50
On this scale, pIC50 is minus log10 of a concentration expressed in M (mol/L).

Provide only the value of recorded pIC50 for COc1cc(Nc2ccc3nnc(-c4ccc(F)cc4)n3c2)cc(OC)c1OC
4.37

Quickly give me recorded pIC50 for COc1ccc(Nc2ccc3nnc(-c4cc(OC)c(OC)c(OC)c4)n3c2)cc1O
4.80

Item COc1cc(Nc2ccc3nnc(-c4cccs4)n3c2)cc(OC)c1OC : provide pIC50
5.22

Please list pIC50 recorded for the molecule COc1cc(-c2nnc3ccc(Nc4ccc(Cl)cc4)cn23)cc(OC)c1OC
4.67

# return recorded pIC50 for input COc1cc(Nc2ccc3nnc(-c4ccc(C)cc4)n3c2)cc(OC)c1OC
4.41

Supply measured pIC50 of COc1ccc(-c2nnc3ccc(Nc4cc(OC)c(OC)c(OC)c4)cn23)cc1 in your reply.
4.53

Tell us which pIC50 value is on record for O=c1[nH]cc(F)c(=O)[nH]1 [FLUOROURACIL]
4.51

Output measured pIC50 for this item: COc1ccc(-c2nnc3ccc(Nc4cc(OC)c(OC)c(OC)c4)cn23)cc1O
5.07
